- Target Under Test: recombinant hDHODH (Homo sapiens)
- Construct: made in house; host or cells: E. coli BL21DE3 PyrD
- Sequence (Q02127 whole entry): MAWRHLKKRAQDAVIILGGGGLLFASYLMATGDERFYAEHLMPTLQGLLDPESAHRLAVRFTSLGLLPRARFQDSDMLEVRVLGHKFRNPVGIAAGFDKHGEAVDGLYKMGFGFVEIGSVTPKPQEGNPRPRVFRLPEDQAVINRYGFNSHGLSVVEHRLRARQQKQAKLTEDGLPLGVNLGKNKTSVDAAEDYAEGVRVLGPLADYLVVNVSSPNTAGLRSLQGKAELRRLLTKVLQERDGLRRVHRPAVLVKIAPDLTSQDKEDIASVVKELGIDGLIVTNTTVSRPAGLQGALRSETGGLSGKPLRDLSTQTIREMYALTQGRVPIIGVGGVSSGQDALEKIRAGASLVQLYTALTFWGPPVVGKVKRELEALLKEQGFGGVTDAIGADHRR
- Assay: hDHODH inhibition assay (DCIP reduction)
- Format: biochemical
- Measurement Parameters: mean ± SE of three independent experiments; read-out: hDHODH, IC50 ± SE
pIC50: −log10 of the molar value.
Recorded Endpoint: pIC50

INSERT INTO measurements (compound, recorded_endpoint, observed_result) VALUES
  ('O=C(Nc1c(F)c(F)c(N2CCOCC2)c(F)c1F)c1c(O)nn2ccccc12 [Compound 6]', 'pIC50', 7.04),
  ('Cc1cccc2c(C(=O)Nc3c(F)c(F)c(-c4ccccc4)c(F)c3F)c(O)nn12 [Compound 2]', 'pIC50', 8.37),
  ('O=C(Nc1c(F)c(F)c(-c2ccccc2)c(F)c1F)c1c(O)nn2c(Cl)cccc12 [Compound 4]', 'pIC50', 8.47),
  ('O=C(Nc1c(F)c(F)c(-c2ccnc(C(F)(F)F)c2)c(F)c1F)c1c(O)nn2ccccc12 [Compound 9]', 'pIC50', 6.82),
  ('O=C(Nc1c(F)c(F)c(-c2cccs2)c(F)c1F)c1c(O)nn2ccccc12 [Compound 7]', 'pIC50', 8.87),
  ('O=C(Nc1c(F)c(F)c(-c2cccc(F)c2)c(F)c1F)c1c(O)nn2ccccc12 [Compound 11]', 'pIC50', 8.69),
  ('O=C(Nc1c(F)c(F)c(-c2ccccc2)c(F)c1F)c1c(O)nn2c1CCCC2 [Compound 5]', 'pIC50', 8.24),
  ('O=C(Nc1c(F)c(F)c(-c2ccc(F)cc2)c(F)c1F)c1c(O)nn2ccccc12 [Compound 10]', 'pIC50', 7.75),
  ('O=C(Nc1c(F)c(F)c(-c2cccc(O)c2)c(F)c1F)c1c(O)nn2ccccc12 [Compound 14]', 'pIC50', 8.56),
  ('O=C(Nc1c(F)c(F)c(-c2cccnc2)c(F)c1F)c1c(O)nn2ccccc12 [Compound 8]', 'pIC50', 8.21),
  ('O=C(Nc1c(F)c(F)c(-c2cccc(C(F)(F)F)c2)c(F)c1F)c1c(O)nn2ccccc12 [Compound 13]', 'pIC50', 8.20),
  ('O=C(Nc1c(F)c(F)c(-c2ccc(C(F)(F)F)cc2)c(F)c1F)c1c(O)nn2ccccc12 [Compound 12]', 'pIC50', 7.14);
